From: patent US20240417469A1

targetOfAssay: T1, recombinant CD3D&E protein (human CD3-his tag) (human, UniProt P04234 22-105; P07766 23-126, limits assumed)
T1 construct: Analyte in Biacore; also called CD3D&E-His; CD3d&ε-His
T1 sequence (P04234 22-105 limits assumed, chain 1 of 2): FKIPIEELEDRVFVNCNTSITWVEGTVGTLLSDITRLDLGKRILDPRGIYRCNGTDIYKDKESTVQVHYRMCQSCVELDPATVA
T1 sequence (P07766 23-126 limits assumed, chain 2 of 2): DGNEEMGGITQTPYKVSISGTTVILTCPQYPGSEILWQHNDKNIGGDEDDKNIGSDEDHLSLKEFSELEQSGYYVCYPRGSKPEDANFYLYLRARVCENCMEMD
runDescription: SPR Biacore, Ab captured on Protein A;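 also: humanized antibodies on a Protein A chip, human CD3-his analyte flowed over in serial dilutions for 3 min, dissociation tracked 120–360 s on a Biacore T200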
Kd values, listed per item
Express it in nM; write the number only.

Hu155A9B1-15 (antibody, V domains shown, humanized mAb) VH: EVQLQESGPGLVKPSETLSLTCTVSGGSISSYNVHWVRQPPGKGLEWMGRVRYNGDTSYNSALKSRLTISRDTSKNQFSLKLSSVTAADTAVYYCARGPYGGSSEPLFDYWGQGTMVTVSS VL: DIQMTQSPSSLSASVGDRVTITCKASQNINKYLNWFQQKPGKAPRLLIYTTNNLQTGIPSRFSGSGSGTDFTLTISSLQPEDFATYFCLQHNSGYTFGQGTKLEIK
53.5
Hu153A6B1-2 (antibody, V domains shown, humanized mAb) VH: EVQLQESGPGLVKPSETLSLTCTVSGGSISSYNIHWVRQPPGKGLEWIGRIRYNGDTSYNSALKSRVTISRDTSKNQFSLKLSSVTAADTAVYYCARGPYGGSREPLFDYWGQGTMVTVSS VL: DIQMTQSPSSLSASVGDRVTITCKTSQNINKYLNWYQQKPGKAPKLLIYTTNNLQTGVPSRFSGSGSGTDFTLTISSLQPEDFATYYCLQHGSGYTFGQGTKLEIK
50
Hu192A7B9-18 (antibody, V domains shown, humanized mAb) VH: EVQLQESGPGLVKPSETLSLTCTVSGFSLTSYNVHWVRQPPGKGLEWMGRMRYNGDTSYNSALKSRLTISRDTSKNQVSLKLSSVTAADTAVYYCTRGPRGGYYSALFDYWGQGTMVTVSS VL: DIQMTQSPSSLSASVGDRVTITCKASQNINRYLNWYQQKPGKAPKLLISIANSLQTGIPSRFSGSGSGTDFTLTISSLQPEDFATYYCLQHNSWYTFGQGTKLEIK
56
Hu153A6B1-4 (antibody, V domains shown, humanized mAb) VH: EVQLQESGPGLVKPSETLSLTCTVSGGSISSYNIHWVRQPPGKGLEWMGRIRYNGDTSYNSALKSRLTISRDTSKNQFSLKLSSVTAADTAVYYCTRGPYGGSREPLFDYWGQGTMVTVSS VL: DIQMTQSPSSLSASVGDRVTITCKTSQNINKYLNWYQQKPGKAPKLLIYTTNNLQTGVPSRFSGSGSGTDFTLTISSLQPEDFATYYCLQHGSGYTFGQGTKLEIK
58.5

Recall and state the measured Kd for Hu153A6B1-7 (antibody, V domains shown, humanized mAb) VH: EVQLQESGPGLVKPSETLSLTCTVSGGSISSYNIHWIRQPPGKGLEWIGRIRYNGDTSYNSALKSRVTISVDTSKNQFSLKLSSVTAADTAVYYCARGPYGGSREPLFDYWGQGTMVTVSS VL: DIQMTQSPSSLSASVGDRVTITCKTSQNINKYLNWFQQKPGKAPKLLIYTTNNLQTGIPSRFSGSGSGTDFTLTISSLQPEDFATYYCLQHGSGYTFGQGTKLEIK .
45.2
